# Protocol Description: chemical genetic growth profiling, strain panel (AID 1159580);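 also: tested at 20 µM; growth read once vehicle control cultures reached saturation at 30 °C; 1 = growth at the plate median or of vehicle wells; lower values mean less growth of the strain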
# Cond: S. cerevisiae deletion strains, growth OD, locus YPL241C, strain CIN2, stronger effect = lower value
Among all 5,500 compounds or so, about 2,000 (36%) were called active. About 18% were inconclusive and are not listed. The list shows a part of the results.
Outcome Measure: normalized growth
In your answer, state the number alone without any accompanying words.

### Prompt Write down normalized growth measured for item CC1(C)Oc2ccc3ccc(=O)oc3c2CC1O (stereo not drawn)
### Response 0.996

### Prompt Write down normalized growth measured for item O=C1CC2(CCCC2)CC(=O)N1CCCCN1CCN(c2ncccn2)CC1
### Response 1

Others:
### Prompt Write down normalized growth measured for item COc1ccccc1N1CCN(CCN(C(=O)c2ccc(F)cc2)c2ccccn2)CC1
### Response 1

* * *

# Protocol Description: chemical genetic growth profiling, strain panel (AID 1159580)
# Cond: S. cerevisiae deletion strains, growth OD, locus YKR091W, strain srl3, stronger effect = lower value
The whole screen tested about 5,500 compounds, of which about 2,000 (36%) were called active. About 18% were inconclusive and are not listed. This is one part of the list.
# if measured normalized growth < 1: Condition met  # else: Condition not met

// known answers, use as guide
### Prompt Is normalized growth of O=C(CCCN1CCC2(CC1)C(=O)NCN2c1ccccc1)c1ccc(F)cc1 strictly below 1?
### Response Condition met

### Prompt Is normalized growth of CC[C@@]1(O)C(=O)OCc2c1cc1n(c2=O)Cc2cc3ccccc3nc2-1 strictly below 1?
### Response Condition met

### Prompt Is normalized growth of COC(=O)NC(=S)Nc1ccccc1NC(=S)NC(=O)OC strictly below 1?
### Response Condition met

Others:
### Prompt Is normalized growth of O=c1c(O)cc([C@H]2Oc3cc(O)cc(O)c3C[C@H]2O)cc2c([C@H]3Oc4cc(O)cc(O)c4C[C@H]3O)cc(O)c(O)c12 strictly below 1?
### Response Condition not met

* * *

# Protocol Description: chemical genetic growth profiling, strain panel (AID 1159580)
# Cond: S. cerevisiae deletion strains, growth OD, locus YLR058C, strain SHM2 (second series), stronger effect = lower value
Screen size: about 5,500 compounds; about 2,000 (36%) were called active. Roughly 18% stayed inconclusive and do not appear here. Some of the results follow.
Outcome Measure: normalized growth
In your answer, state the number alone without any accompanying words.

# count of solved cases: 2
### Prompt Write down normalized growth measured for item CC(=O)CS(=O)(=O)c1ccc(Cl)cc1
### Response 1

### Prompt Write down normalized growth measured for item O=C1CC(=O)CC(c2ccc(Cl)c(Cl)c2)C1
### Response 0.985

Others:
### Prompt Write down normalized growth measured for item CC(C)(C)OC(=O)NCc1n[nH]c(=S)n1-c1ccccc1
### Response 1.02

### Prompt Write down normalized growth measured for item O=C(O)c1oc(C(=O)O)c(OCc2ccccc2)c1OCc1ccccc1
### Response 1.02

### Prompt Write down normalized growth measured for item Cc1ccc(OS(=O)(=O)c2ccc(Cl)cc2)c([N+](=O)[O-])n1
### Response 0.988

### Prompt Write down normalized growth measured for item NC(N)=NC(N)=Nc1cc(Cl)cc(Cl)c1
### Response 0.999

* * *

# Protocol Description: chemical genetic growth profiling, strain panel (AID 1159580)
# Cond: S. cerevisiae deletion strains, growth OD, locus YMR223W, strain ubp8
About 2,000 (36%) of roughly 5,500 compounds were called active. About 18% were inconclusive and are not listed. Cut-off read from the data, not from the text of the source: active = normalized growth mostly below about 0.91 (no sharp cut-off); inconclusive = no clear call, values can overlap the other calls; inactive = mostly above about 0.92. Some of the results follow.
Write down the outcome that applies. Available outcomes: class 1 for active, class 0 for inactive

// known answers, use as guide
### Prompt Called result for NC(=O)c1ccccc1O
### Response class 0

### Prompt Called result for O=C(CCCN1CCC(O)(c2ccc(Cl)cc2)CC1)c1ccc(F)cc1
### Response class 1

### Prompt Called result for C[C@@H]1O[C@@H](O[C@H]2CC[C@]3(C=O)C4CC[C@]5(C)[C@@H](C6=CC(=O)OC6)CC[C@]5(O)C4CC[C@]3(O)C2)[C@H](O)[C@H](O)[C@H]1O (some centres not stated)
### Response class 0

### Prompt Called result for NC(N)=Nc1ccc(Cl)cc1
### Response class 0

### Prompt Called result for NCCCCN
### Response class 0

Others:
### Prompt Called result for CC1(C)Oc2ccc3ccc(=O)oc3c2CC1O (configuration not stated)
### Response class 0

### Prompt Called result for CCCCCC(O)C1C(=O)OC(C)C(O)/C=C/C=C/C=C/C=C/C=C(\C)C(O)CC(O)CC(O)CC(O)CC(O)CC(O)CC1O (configuration not stated)
### Response class 0

* * *

# Protocol Description: chemical genetic growth profiling, strain panel (AID 1159580)
# Cond: S. cerevisiae deletion strains, growth OD, locus YJL164C, strain tpk1, stronger effect = lower value
Hit rate of the full screen: of about 5,500 compounds, about 2,000 (36%) were called active. About 18% were inconclusive and are not listed. Some of the results follow.
Listing of recorded normalized growth by entry.
In your answer, state the number alone without any accompanying words.

### Prompt Write down normalized growth measured for item COC1CC(O[C@H]2CC[C@]3(C=O)C4CC[C@]5(C)C(C6=CC(=O)OC6)CC[C@]5(O)C4CC[C@]3(O)C2)OC(C)C1O (stereo partly specified)
### Response 0.99

* * *

# Protocol Description: chemical genetic growth profiling, strain panel (AID 1159580);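 also: tested at 20 µM; growth read once vehicle control cultures reached saturation at 30 °C; 1 = growth at the plate median or of vehicle wells; lower values mean less growth of the strain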
# Cond: S. cerevisiae deletion strains, growth OD, locus YKL085W, strain MDH1 (second series), stronger effect = lower value
The whole screen tested about 5,500 compounds, of which about 2,000 (36%) were called active. Another 18% or so got no clear call; they are omitted. The list shows a part of the results.
Listing of recorded normalized growth by entry.
In your answer, state the number alone without any accompanying words.

### Prompt Write down normalized growth measured for item C/C=C(\C)C(=O)O[C@@H]1c2c(ccc3ccc(=O)oc23)OC(C)(C)[C@@H]1OC(C)=O
### Response 0.991

Others:
### Prompt Write down normalized growth measured for item CC(=O)O[C@@H]1c2c(ccc3ccc(=O)oc23)OC(C)(C)[C@@H]1OC(=O)CC(C)C
### Response 0.988

### Prompt Write down normalized growth measured for item NC[C@H]1O[C@H](O[C@H]2[C@H](O)[C@@H](O[C@H]3O[C@H](CO)[C@@H](O)[C@H](N)[C@H]3O)[C@H](N)C[C@@H]2N)[C@H](N)[C@@H](O)[C@@H]1O
### Response 0.993

### Prompt Write down normalized growth measured for item C/C=C(/C)C(=O)O[C@@H]1Cc2c(ccc3ccc(=O)oc23)OC1(C)C
### Response 0.978

### Prompt Write down normalized growth measured for item COc1ccc(-c2cc(=O)c3c(O)cc(O)cc3o2)cc1
### Response 0.98

### Prompt Write down normalized growth measured for item O=C(CCCN1CCC2(CC1)C(=O)NCN2c1ccccc1)c1ccc(F)cc1
### Response 0.986

### Prompt Write down normalized growth measured for item CNC[C@H](O)c1cccc(O)c1
### Response 1.01

* * *

# Protocol Description: chemical genetic growth profiling, strain panel (AID 1159580);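 also: tested at 20 µM; growth read once vehicle control cultures reached saturation at 30 °C; 1 = growth at the plate median or of vehicle wells; lower values mean less growth of the strain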
# Cond: S. cerevisiae deletion strains, growth OD, locus YOR080W, strain dia2, stronger effect = lower value
About 2,000 (36%) of roughly 5,500 compounds were called active. Not shown: some 18% with an inconclusive outcome. This is one part of the list.
# if measured normalized growth < 1: Condition met  # else: Condition not met

// known answers, use as guide
### Prompt Is normalized growth of Cc1ncc(CO)c(CO)c1O strictly below 1?
### Response Condition not met

### Prompt Is normalized growth of COc1nc(NC(C)C)nc(NC(C)C)n1 strictly below 1?
### Response Condition not met

### Prompt Is normalized growth of N#Cc1c(Cl)cccc1Cl strictly below 1?
### Response Condition met

We next turn to a different molecule, shown below.
### Prompt Is normalized growth of CC(=O)OCC(=O)[C@@]1(O)CCC2C3C[C@H](C)C4=CC(=O)C=CC4(C)C3[C@@H](O)CC21C (stereo partly specified) strictly below 1?
### Response Condition not met

* * *

# Protocol Description: chemical genetic growth profiling, strain panel (AID 1159580);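 also: tested at 20 µM; growth read once vehicle control cultures reached saturation at 30 °C; 1 = growth at the plate median or of vehicle wells; lower values mean less growth of the strain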
# Cond: S. cerevisiae deletion strains, growth OD, locus YJL134W, strain LCB3, stronger effect = lower value
Screen size: about 5,500 compounds; about 2,000 (36%) were called active. Roughly 18% stayed inconclusive and do not appear here. This is one part of the list.
Listing of recorded normalized growth by entry.
In your answer, state the number alone without any accompanying words.

### Prompt Write down normalized growth measured for item NC[C@@H]1O[C@H](O[C@@H]2[C@@H](CO)OC(O[C@@H]3[C@@H](O)[C@H](N)C[C@H](N)[C@H]3O[C@H]3O[C@H](CO)[C@@H](O)[C@H](O)[C@H]3N)[C@@H]2O)[C@H](N)[C@@H](O)[C@@H]1O (stereo not given in full)
### Response 0.999

### Prompt Write down normalized growth measured for item CCOC(=O)C1=C(O)C(=O)N(Cc2ccccc2)C1
### Response 1.01

### Prompt Write down normalized growth measured for item NCCCN
### Response 1

### Prompt Write down normalized growth measured for item C[C@]12CCC3C(CC[C@]4(O)C[C@@H](O)CC[C@]34C=O)[C@@]1(O)CCC2C1=CC(=O)OC1 (stereo not given in full)
### Response 0.98

### Prompt Write down normalized growth measured for item CC(C)(C)NCC(O)COc1cccc2c1C[C@H](O)[C@H](O)C2 (stereo not given in full)
### Response 0.989

Others:
### Prompt Write down normalized growth measured for item COc1cc(C(=O)N2CCOCC2)cc(OC)c1OC
### Response 1.01

### Prompt Write down normalized growth measured for item C[C@]12CC[C@H](O)C[C@H]1CCC1C2CC[C@]2(C)[C@@H](C3=CC(=O)OC3)[C@@H](O)C[C@]12O (stereo not given in full)
### Response 1.02

### Prompt Write down normalized growth measured for item COC(=O)CC1C(C)(C)C(OC(C)=O)[C@@H]2[C@@H](OC(C)=O)[C@]34O[C@@]2(O)[C@]1(C)C3CC[C@]1(C)C4=CC(=O)O[C@H]1c1ccoc1 (stereo not given in full)
### Response 0.996

### Prompt Write down normalized growth measured for item NCCCCN
### Response 1.01

### Prompt Write down normalized growth measured for item CC(=O)OC1CC[C@@]2(C)C(CCC3C2CC[C@]2(C)C(C4=CC(=O)OC4)C(OC(C)=O)CC32O)C1 (stereo not given in full)
### Response 0.995

### Prompt Write down normalized growth measured for item COc1cccc2c1CCC1=CC(=O)CC[C@@]12C
### Response 1.01

### Prompt Write down normalized growth measured for item CC12CCC3C(CCC4(O)CC(O)CCC34/C=N/NC(N)=O)C1(O)CCC2C1=CC(=O)OC1 (stereo not given)
### Response 1.01

### Prompt Write down normalized growth measured for item Oc1ccc2c3c1OC1[C@@H](O)CC[C@@]4(O)[C@@H](C2)N(CC2CCC2)CC[C@]314 (stereo not given in full)
### Response 1.01

### Prompt Write down normalized growth measured for item CCCc1nn(C)c2c(=O)[nH]c(-c3cc(S(=O)(=O)N4CCN(C)CC4)ccc3OCC)nc12
### Response 1.01

### Prompt Write down normalized growth measured for item O=C(Oc1ccccc1C(=O)O)c1ccccc1O
### Response 0.985

### Prompt Write down normalized growth measured for item CC(=O)N1CCN(c2ccc(OCC3CO[C@](Cn4ccnc4)(c4ccc(Cl)cc4Cl)O3)cc2)CC1 (stereo not given in full)
### Response 0.0818

### Prompt Write down normalized growth measured for item CC[C@@]1(O)C(=O)OCc2c1cc1n(c2=O)Cc2cc3ccccc3nc2-1
### Response 0.997

### Prompt Write down normalized growth measured for item O=c1c(O)cccc2c(C3Oc4cc(O)cc(O)c4CC3O)cc(O)c(O)c12 (stereo not given)
### Response 0.58

### Prompt Write down normalized growth measured for item C[C@@H]1O[C@@H](O[C@H]2CC[C@]3(C=O)C4CC[C@]5(C)[C@@H](C6=CC(=O)OC6)CC[C@]5(O)C4CC[C@]3(O)C2)[C@H](O)[C@H](O)[C@H]1O (stereo not given in full)
### Response 0.994

### Prompt Write down normalized growth measured for item CCCCCC(O)C1C(=O)OC(C)C(O)/C=C/C=C/C=C/C=C/C=C(\C)C(O)CC(O)CC(O)CC(O)CC(O)CC(O)CC1O (stereo not given)
### Response 1.01

### Prompt Write down normalized growth measured for item C[C@@H](CO)NC(=O)C1C=C2c3cccc4[nH]cc(c34)C[C@H]2N(C)C1 (stereo not given in full)
### Response 0.997

### Prompt Write down normalized growth measured for item O=C(CCCN1CCC2(CC1)C(=O)NCN2c1ccccc1)c1ccc(F)cc1
### Response 1

### Prompt Write down normalized growth measured for item CCOC(=O)CC(SP(=S)(OC)OC)C(=O)OCC (stereo not given)
### Response 1.01

### Prompt Write down normalized growth measured for item CN(C)C(=O)C(CCN1CCC(O)(c2ccc(Cl)cc2)CC1)(c1ccccc1)c1ccccc1
### Response 1.01

### Prompt Write down normalized growth measured for item CC1(C)C(O)CC(=O)C2(C)C1CC(O)C1(C)C2CCC2(C)C(c3ccoc3)OC(=O)C3OC321 (stereo not given)
### Response 1.01

Values from PubChem BioAssay AID1159580
